- Target desc: T1, rhesus PCSK9 (rhesus, UniProt A8T666 31-692, limits assumed)
- T1 construct: A rhesus PCSK9-His from Sino Biological is named only for the ELISA of Section 4.3.2; also called monkey PCSK9; rhesus PCSK9-His
- T1 sequence (A8T666 31-692 limits assumed): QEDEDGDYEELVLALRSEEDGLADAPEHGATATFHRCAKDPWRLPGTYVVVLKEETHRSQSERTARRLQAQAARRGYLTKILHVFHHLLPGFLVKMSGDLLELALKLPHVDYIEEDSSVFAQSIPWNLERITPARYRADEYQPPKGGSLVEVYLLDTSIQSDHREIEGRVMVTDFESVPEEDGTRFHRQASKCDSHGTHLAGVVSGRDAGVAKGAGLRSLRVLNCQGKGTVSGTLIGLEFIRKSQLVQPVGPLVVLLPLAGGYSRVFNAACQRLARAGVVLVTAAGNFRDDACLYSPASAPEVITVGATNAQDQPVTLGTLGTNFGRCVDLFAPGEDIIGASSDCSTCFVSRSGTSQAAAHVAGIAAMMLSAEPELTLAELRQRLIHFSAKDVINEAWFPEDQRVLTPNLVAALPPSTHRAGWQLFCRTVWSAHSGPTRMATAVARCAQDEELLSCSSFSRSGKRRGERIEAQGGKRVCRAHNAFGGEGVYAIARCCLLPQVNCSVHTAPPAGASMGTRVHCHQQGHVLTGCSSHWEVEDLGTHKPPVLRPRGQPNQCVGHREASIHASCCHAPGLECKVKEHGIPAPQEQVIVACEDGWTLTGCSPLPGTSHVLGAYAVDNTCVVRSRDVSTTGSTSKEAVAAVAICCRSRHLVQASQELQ
- Assay procedure: SPR, Biacore T200, antibody captured, monkey PCSK9 as analyte
Reported koff values are given for each entry in this list.
Dear colleague, please return just the value in s⁻¹, with no unit written.

Some solved entries appear below for comparison.
* 15.14.2-uAb-IgG4L (antibody, V domains shown, human IgG4 constant region, lambda light chain) VH: EVQMLESGGGLVQPGGSLRLSCAVSGFTFSRFAMSWVRQAPGKGLDWVSSISDNAGRTYFADSVKGRFTISRDNSKNTLYLQMNSLRADDTAVYYCAKLSNWGPYGMDVWGQGTTVTVSS VL: QSALTQPPSASGSPGQSVTISCTGTSSDVGYYNYVSWYQQHPGEAPKLMIYEVNKRPSGVPDRFSGSKSGSTASLTVSGLQAVDEADYYCSSYAGSKNFVVFGGGTKLTVL | 0.00031
* 19.3.8-uAb1-IgG4L (antibody, V domains shown, human IgG4 constant region, lambda light chain) VH: QVQLVQSGAEVKKPGASVKVSCKASGYTFTGYYINWVRQAPGQGLEWMGRINPNSGGTNYAQKFQGRVTMTRDTSINTAYMELSRLRSDDTAVYFCASWEGTVTTWDFYYYYGMDVWGQGTTVTVSS VL: QSALTQPASVSGSPGQSITISCTGTSSDVDTYNYVSWYQHHPGKAPKLIIFDVSNRPSGVSNRFSGSKSGNTASLTISGLQAEDEADYYCSSYTSSSTLVVFGGGTKLTVL | 0.00441

Ask: Dear colleague, I am looking for the recorded koff of the following binder: 17.72.3-uAb2-IgG4K (antibody, V domains shown, human IgG4 constant region, kappa light chain) VH: QVQLQESGPGLVKPSGTLSLTCAVSGGSIRSYNWWSWVRQPPGEGLEWIGEIHHSGTTNYNPSLKSRVTISVDKSKNQFSLKLSSVTAADTAVYYCARDYSGSYFDYWGQGTLVTVSS VL: EVVLTQSPATLSLSPGERATLSCRTSQSLSSYVAWSQQKPGQAPRLLIYDASKRATGVPARFSGSGSGTDFTLTISNLEPEDFAVYYCHQRGNWMSSFGQGTKLEIK
Reply: 0.00226

Ask: Dear colleague, I am looking for the recorded koff of the following binder: 40409 (hIgG4) (antibody, V domains shown, human IgG4 constant region) VH: QLNLQQSGPGLVNPSQTLSLTCAISGGSVSSNSAAWNWIRQSPSRGLEWLGRIYSRSKWYHDYAVSVKGRITINPDTSKNQFFLQLNSVTPEDTAVYYCARDWETIIWGDDGPNYYNYGLDVWGQGTTVTVSS VL: DIQMTQSPSSLSASVGDRVTITCRASQGIRNDLGWYQQKPGKAPKRLIYGASSLQSGVPSRFSGSGSGTEFTLTISSLQPEDFATYYCLQHNNYLWTFGQGTKVEIK
Reply: 0.000939

Numbers sourced from patent US20190233542A1.
